Value source: patent US20080045514A1

Tested on: human breast cancer cell line T-47D
Assay: Caspase cascade activation (EC50), T-47D
Assay type: cell-based
Details: Homo sapiens; T47D cells; caspase cascade activation; read-out: caspase potency (EC50) T47D
assay metric: pEC50
Quick note: pEC50 values are minus log10 of concentrations in mol/L.

COc1cc(OC)cc(-c2nnc3n2N=C(c2ccc4c(c2)OCO4)CS3)c1 [Example 2]; 6.29
COc1ccc(C2=Nn3c(nnc3-c3n[nH]c4c3CCC4)SC2)cc1 [Example V2]; 6.51
COc1ccc(C2=Nn3c(nnc3-c3cccc(Br)c3)SC2)cc1 [Example I2]; 6.04
COc1cc(-c2nnc3n2N=C(c2ccc4c(c2)OCO4)CS3)cc(Cl)c1OC [Example 4]; 6.77
CSc1ccccc1-c1nnc2n1N=C(c1ccc(C)cc1)CS2 [Example 71]; 6.34

Note: attention shifts to another entry.
Exercise: For the molecule shown here, COc1ccc(Cl)cc1-c1nnc2n1N=C(c1ccc(C)cc1)CS2 [Example 62] , give the reported pEC50.
Solution: 7.00
